target: adhesion of U937 cells (VLA-4) to hVCAM-1(1-3)-IgG (Homo sapiens, UniProt P05556+P13612); construct: the VLA-4 integrins, are supplied in their natural form as surface molecules on human U937 cells; The partner hVCAM-1(1-3)-IgG was made in transfected COS cells (ATCC CRL1651) and used as culture supernatant; assay: U937/VCAM-1 cell adhesion test; conditions: human U937 cells (ATCC CRL 1593); recombinant hVCAM-1(1-3)-IgG; read-out: IC50 (inhibition of the adhesion of U937 cells to hVCAM-1(1-3)-IgG by 50%)
Sequence (P13612 34-1032): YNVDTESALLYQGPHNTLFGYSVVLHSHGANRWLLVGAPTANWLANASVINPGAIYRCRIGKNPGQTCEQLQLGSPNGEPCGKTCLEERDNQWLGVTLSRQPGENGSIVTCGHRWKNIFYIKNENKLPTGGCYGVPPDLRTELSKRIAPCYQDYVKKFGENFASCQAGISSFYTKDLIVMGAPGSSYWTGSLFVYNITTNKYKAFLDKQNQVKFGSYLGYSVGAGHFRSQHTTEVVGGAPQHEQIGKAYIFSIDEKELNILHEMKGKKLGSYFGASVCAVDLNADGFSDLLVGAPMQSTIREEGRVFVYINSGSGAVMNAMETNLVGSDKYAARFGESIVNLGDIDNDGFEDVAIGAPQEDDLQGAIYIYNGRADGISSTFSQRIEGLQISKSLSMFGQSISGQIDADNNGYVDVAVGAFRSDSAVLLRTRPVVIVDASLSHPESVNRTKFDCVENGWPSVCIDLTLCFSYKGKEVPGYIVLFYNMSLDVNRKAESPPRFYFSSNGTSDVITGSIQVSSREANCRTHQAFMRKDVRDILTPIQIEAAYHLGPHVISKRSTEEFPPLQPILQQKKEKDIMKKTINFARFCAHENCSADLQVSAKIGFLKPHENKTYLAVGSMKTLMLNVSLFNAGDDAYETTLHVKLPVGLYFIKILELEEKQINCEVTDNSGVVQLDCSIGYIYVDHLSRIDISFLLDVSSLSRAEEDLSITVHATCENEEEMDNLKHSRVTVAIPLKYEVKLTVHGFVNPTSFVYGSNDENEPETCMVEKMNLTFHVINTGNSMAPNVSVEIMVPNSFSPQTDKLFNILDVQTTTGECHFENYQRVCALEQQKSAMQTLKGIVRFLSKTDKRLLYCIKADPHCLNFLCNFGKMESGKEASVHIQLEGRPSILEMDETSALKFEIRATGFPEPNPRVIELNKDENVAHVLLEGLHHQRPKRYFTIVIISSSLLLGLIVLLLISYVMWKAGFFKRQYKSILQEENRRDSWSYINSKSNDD
Sequence (P05556 21-798): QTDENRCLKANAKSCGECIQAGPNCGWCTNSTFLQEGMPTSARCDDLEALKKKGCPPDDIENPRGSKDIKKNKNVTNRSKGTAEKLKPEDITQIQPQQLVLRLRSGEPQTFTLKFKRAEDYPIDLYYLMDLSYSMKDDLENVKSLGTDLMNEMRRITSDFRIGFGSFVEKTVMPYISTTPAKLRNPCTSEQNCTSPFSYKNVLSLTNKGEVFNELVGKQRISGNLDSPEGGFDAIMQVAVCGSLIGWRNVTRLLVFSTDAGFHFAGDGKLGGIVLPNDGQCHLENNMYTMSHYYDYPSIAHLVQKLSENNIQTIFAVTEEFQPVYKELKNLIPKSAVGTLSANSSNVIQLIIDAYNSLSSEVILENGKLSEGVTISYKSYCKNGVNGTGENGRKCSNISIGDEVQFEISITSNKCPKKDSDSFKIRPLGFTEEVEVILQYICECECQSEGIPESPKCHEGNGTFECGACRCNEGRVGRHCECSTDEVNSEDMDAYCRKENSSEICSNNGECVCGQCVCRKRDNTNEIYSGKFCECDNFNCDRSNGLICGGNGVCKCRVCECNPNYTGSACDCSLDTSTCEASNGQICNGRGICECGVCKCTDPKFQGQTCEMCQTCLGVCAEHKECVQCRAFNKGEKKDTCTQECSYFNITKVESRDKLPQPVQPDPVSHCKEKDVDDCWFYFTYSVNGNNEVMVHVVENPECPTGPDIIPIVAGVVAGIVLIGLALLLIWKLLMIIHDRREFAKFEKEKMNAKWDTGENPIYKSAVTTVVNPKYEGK
Structures can show the parent of a compound that is named as a salt.
Measured Metric: IC50 (nM)
Write the answer as a number in nM, unit excluded.

Compound	Measured Number
COc1cc(CN2C(=O)N([C@@H](CC3CC3)C(=O)N[C@H](C)CC(=O)O)C(=O)C2(C)C)ccc1NC(=O)Nc1ccccc1	2.1
COc1cc(CN2C(=O)N([C@@H](CC3CC3)C(=O)N[C@H](C)CC(=O)O)C(=O)C2(C)C)ccc1NC(=O)Nc1ccccc1C [Example 1]	0.3
COc1cc(CN2C(=O)N([C@@H](CC3CC3)C(=O)NC(CC(=O)O)c3cccnc3)C(=O)C2(C)C)ccc1NC(=O)Nc1ccccc1C (some centres unmarked) [Example 10, Hydrochloride]	0.6

# context switch: different compound, same IC50
**Q:** Please give measured IC50 of the following entry: Cc1ccccc1NC(=O)Nc1ccc(CN2C(=O)N([C@@H](CC3CC3)C(=O)N[C@H](C)CC(=O)O)C(=O)C2(C)C)cc1O
**A:** 25.9

###

target: adhesion of U937 cells (VLA-4) to hVCAM-1(1-3)-IgG (Homo sapiens, UniProt P05556+P13612); construct: the VLA-4 integrins, are supplied in their natural form as surface molecules on human U937 cells; The partner hVCAM-1(1-3)-IgG was made in transfected COS cells (ATCC CRL1651) and used as culture supernatant; experiment: U937/VCAM-1 cell adhesion test; details: human U937 cells (ATCC CRL 1593); recombinant hVCAM-1(1-3)-IgG; read-out: IC50 (inhibition of the adhesion of U937 cells to hVCAM-1(1-3)-IgG by 50%)
Counter-ions that a name gives are not always drawn.
Measured Metric: IC50 (nM)
Write the answer as a number in nM, unit excluded.

Consider the worked cases shown below.
Molecule	Measured Metric	Measured Number
COc1cc(CN2C(=O)N([C@@H](CC3CC3)C(=O)N[C@@H](CC(=O)O)c3ccccc3)C(=O)C2(C(F)(F)F)C(F)(F)F)ccc1NC(=O)Nc1ccccc1C	IC50	4.4
COc1cc(CN2C(=O)N([C@@H](CC3CC3)C(=O)N[C@H](C)CC(=O)O)C(=O)C2(C)C)ccc1NC(=O)Nc1ccccc1C [Example 2, Sodium Salt]	IC50	0.5
COc1cc(CN2C(=O)N([C@@H](CC3CC3)C(=O)NC(CC(=O)O)c3ccncc3)C(=O)C2(C)C)ccc1NC(=O)Nc1ccccc1C (stereo partly shown) [Example 13, Hydrochloride]	IC50	1.8

**Q:** Please give measured IC50 of the following entry: COc1cc(CN2C(=O)N([C@@H](CC3CC3)C(=O)NC(CC(=O)O)c3ccccn3)C(=O)C2(C)C)ccc1NC(=O)Nc1ccccc1C (stereo partly shown)
**A:** 0.9

Where do these numbers come from? They come from patent US6680333B2.
